- Test: physchem
- Condition Info: water, pH 7.4, water
Result Type: solubility

>  <Molecule>
NC(Cc1ccc(B(O)O)cc1)C(=O)O (stereo not shown) [BPA, P-boronophenylalanine]

>  <Result Type>
solubility

>  <Reported>
1150 to 3700 µg/mL

$$$$
